system: XIP peptide (Xip251-270) binding; assay: XIP fragment 251-270 binding compounds – biochemical, small-molecule microarray, fluorescence 635/667 nm, 0.1 µg/mL protein, primary screen (AID 1182); conditions: fluorescent protein binding, 635 nm, higher = more signal, called active from +8 up or from −8 down
// reported composite z-score for each item listed
Respond using a number only.

// known answers, use as guide
C=C[C@@H](OC)[C@H](OC(=O)Nc1ccc(OC)cc1)c1ccc(O)c(F)c1
0.65
COC(=O)c1c(CC[C@@H](CO)NC(=O)N2CCC[C@H]2Cn2cc(C3(O)CCCCC3)nn2)oc(C(C)=O)c1C(=O)OC
0.812
CCOC(=O)C[C@H]1[C@H](OC(=O)c2ccc(C(=O)c3ccccc3)cc2)[C@@H](NC(=O)CC(C)C)c2cc(OCCCO)ccc2N1C(=O)c1ccccc1
0.786
C=C(/C(=C/C[C@H](OC(=O)c1ccncc1)c1ccc(CO)o1)c1cnc2ccccc2c1)C(C)C
0.276
COCCOC(=O)N1C(=O)[C@@]2(c3cc(C#CCNC(N)=O)ccc31)[C@H](C(N)=O)[C@H]1C(=O)O[C@H](c3ccccc3)[C@H](c3ccccc3)N1[C@@H]2c1ccccc1OCCO
0.253

// query Answer with reported composite z-score of Cn1cccc1C(O)C1C=CC2C(=O)N(c3ccccc3)C(=O)C2N1Nc1ccccc1 (centres undefined)
// result 0.622

// query Answer with reported composite z-score of C=CCNC(=O)[C@@H]1[C@H]2C(=O)O[C@H](c3ccccc3)[C@H](c3ccccc3)N2[C@H](c2ccccc2OCCO)[C@@]12C(=O)N(C(=O)OCCOC)c1ccc(C#CC3(O)CCCCCC3)cc12
// result 0.99

// query Answer with reported composite z-score of C=C[C@H](C)[C@H](OC(=O)Nc1ccc(SC)cc1)c1ccc(OCCO)cc1
// result 2.81

// query Answer with reported composite z-score of COc1ccccc1CN1C(=O)c2ccccc2[C@](Cc2ccccc2I)(C(=O)O)[C@@H]1c1ccc(CO)cc1
// result 0.382

----------
system: PRMT1 (protein arginine N-methyltransferase 1); test: small molecules binding arginine methyltransferase PRMT1 – biochemical, small-molecule microarray, 635 nm fluorescence, primary screen (AID 1088); details: higher = more signal;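 also: binding of Prmt1 protein to compounds spotted on small-molecule microarray slides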
ENDPOINT LABEL: composite z-score

// known answers, use as guide
CC(C)C(CO)N1C(=O)[C@@H]2[C@H]3C(=O)OCC=C[C@H]3OC23C=CCN(c2ccc(Cl)cc2)C(=O)[C@@H]13 (stereo partly drawn)
0.193
COCC(=C=CC[C@H](O)c1ccc(OCCO)cc1)CCO
1.18
CCOC(=O)C[C@H]1[C@H](OC(=O)Cc2ccc3c(c2)OCO3)[C@@H](NC(=O)c2ccc3ccccc3n2)c2cc(OCCCO)ccc2N1C(=O)c1ccccc1
0.299
COc1cc(NN2C(C(O)c3ccco3)C=CC3C(=O)N(C)C(=O)C32)cc(OC)c1OC (stereo not drawn)
0.865
O=C1N(CCS(=O)(=O)c2ccccc2)c2ccccc2[C@H]2OC(c3ccc(OCCCO)cc3)=N[C@@]12Cc1ccccc1
1.55
CCCC[C@@H]1C[C@H]1[C@@H](NC(=O)c1cccs1)c1ccccc1C(F)(F)F
0.72

// query # assay system PRMT1 (protein arginine N-methyltransferase 1): give composite z-score of O=C1C2C=CC(C(O)C3CC=CCC3)N(Nc3ccccc3)C2C(=O)N1c1ccccc1 (stereo not drawn)
// result 1.24

// query # assay system PRMT1 (protein arginine N-methyltransferase 1): give composite z-score of COCCCNC(=O)[C@@H]1c2ccccc2C(=O)N(C(C)C)[C@H]1c1ccc(CO)cc1
// result -0.325
